- TARGET OR SYSTEM: Oxytocin receptor (Rattus norvegicus) (UniProt P70536)
- Sequence (P70536 whole entry): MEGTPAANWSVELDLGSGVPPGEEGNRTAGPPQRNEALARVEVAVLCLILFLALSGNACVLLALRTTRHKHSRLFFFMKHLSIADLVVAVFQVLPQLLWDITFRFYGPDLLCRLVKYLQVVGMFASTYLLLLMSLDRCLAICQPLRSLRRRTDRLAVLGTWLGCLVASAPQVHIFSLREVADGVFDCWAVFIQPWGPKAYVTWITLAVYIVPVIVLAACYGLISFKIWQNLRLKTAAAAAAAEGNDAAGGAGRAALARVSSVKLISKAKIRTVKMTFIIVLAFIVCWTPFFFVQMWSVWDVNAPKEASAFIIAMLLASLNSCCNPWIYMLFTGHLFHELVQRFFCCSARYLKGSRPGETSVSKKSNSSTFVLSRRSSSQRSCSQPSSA
- PROTOCOL NOTES: Activity at oxytocin receptor in rat uterus relative to oxytocin
- Type: tissue-based
*1 amine or outer side, *2 acyl side, *3 side chain or, on linkers, in order; H or OH if unused. Where a SMILES comes first, the peptide text is derived from it. Bridges are numbered along the chain shown (N, C = ends). X2 = O=C(CCC[*:2])[*:1]
RECORDED METRIC: Ratio
// keep it numeric: no unit symbol after the value

For the compound CC[C@H](C)[C@@H]1NC(=O)[C@H](Cc2ccc(O)cc2)NC(=O)CCCSC[C@@H](C(=O)N2CCC[C@H]2C(=O)N[C@@H](CC(C)C)C(=O)NCC(N)=O)NC(=O)[C@H](CC(N)=O)NC(=O)[C@H](CCC(N)=O)NC1=O (YIQNCPLG-NH2; linker N-5 via X2) , what Ratio is on record?
4
